- target entity: delta opioid receptor (Rattus norvegicus, UniProt P33533)
- Construct: from tissue; host or cells: forebrain of male Wistar rats
- Sequence (P33533 whole entry): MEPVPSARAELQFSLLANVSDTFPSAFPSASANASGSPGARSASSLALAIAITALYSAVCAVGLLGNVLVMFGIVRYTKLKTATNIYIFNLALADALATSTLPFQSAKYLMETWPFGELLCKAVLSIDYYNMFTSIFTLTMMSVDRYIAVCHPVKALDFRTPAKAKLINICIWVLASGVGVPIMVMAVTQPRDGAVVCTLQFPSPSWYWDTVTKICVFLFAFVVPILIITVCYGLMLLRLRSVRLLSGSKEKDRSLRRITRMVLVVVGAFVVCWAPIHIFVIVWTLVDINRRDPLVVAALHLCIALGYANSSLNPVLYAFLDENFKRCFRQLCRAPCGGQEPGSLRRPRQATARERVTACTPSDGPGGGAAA
- test summary: Rat brain delta opioid receptor binding assay
Parameter: Ki. Scope: all listed entries.
result type: Ki (nM)

{"smiles str": "COc1ccc(Oc2nc(-c3cncc(C#N)c3)cnc2N[C@H]2CC[C@@H](N)CC2)cc1", "numeric readout": 0.4}
{"smiles str": "COc1ccc(Oc2nc(-c3cncc(C#N)c3)cnc2N[C@H]2CC[C@H](N)CC2)cc1", "numeric readout": 0.7}

====

- target entity: δ-opioid receptor (Mus musculus, UniProt P32300)
- Construct: NG108-15 cell membranes were purchased from Applied Cell Sciences (Rockville, Md.); host or cells: NG108-15 cell membranes (purchased)
- Sequence (P32300 whole entry): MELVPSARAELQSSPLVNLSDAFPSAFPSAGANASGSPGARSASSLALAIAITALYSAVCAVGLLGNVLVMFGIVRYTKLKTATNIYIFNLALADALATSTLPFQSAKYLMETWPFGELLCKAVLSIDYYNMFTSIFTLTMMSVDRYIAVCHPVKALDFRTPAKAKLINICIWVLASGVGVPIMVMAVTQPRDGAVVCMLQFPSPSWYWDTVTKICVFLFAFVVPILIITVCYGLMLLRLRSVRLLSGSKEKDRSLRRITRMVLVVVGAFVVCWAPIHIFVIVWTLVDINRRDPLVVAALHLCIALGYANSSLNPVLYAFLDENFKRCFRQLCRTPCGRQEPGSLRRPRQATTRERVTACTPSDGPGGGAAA
- test summary: [35S]GTPγS binding assay in NG108-15 cell membranes (delta opioid functional assay)
- Format: biochemical
- test context: 200 nM compound; relative to calculated max of SNC80 dose response
Label scheme for GTPγS δ-RelEfficacy @200 nM: lower than 0.6 is f, 0.6 and above is t.

{"compound": "N#Cc1cncc(-c2cnc(NC[C@@H]3CCCN3)c(Oc3ccc4occc4c3)n2)c1 [Cpd 39]", "group label": "t"}
{"compound": "N#Cc1cncc(-c2cnc(NC[C@@H]3CCCN3)c(Oc3ccc(OC(F)(F)F)cc3)n2)c1 [Cpd 36]", "group label": "f"}
{"compound": "COc1ccc(Cc2nc(-c3cncnc3)cnc2NC[C@@H]2CCCN2)cc1 [Cpd 17]", "group label": "f"}
{"compound": "N#CCc1ccc(Oc2nc(-c3cncc(C#N)c3)cnc2NC[C@@H]2CCCN2)cc1 [Cpd 27]", "group label": "t"}
{"compound": "Clc1ccccc1Oc1nc(-c2cncnc2)cnc1NC[C@@H]1CCCN1 [Cpd 12]", "group label": "f"}
{"compound": "N#Cc1cncc(-c2cnc(NC[C@@H]3CCCN3)c(Oc3ccc(OC(F)F)cc3)n2)c1 [Cpd 29]", "group label": "f"}
{"compound": "COc1ccc(Oc2nc(-c3cncc(C#N)c3)cnc2NC[C@@H]2CCCN2)cc1F [Cpd 25]", "group label": "t"}
{"compound": "N#Cc1cncc(-c2cnc(NC[C@@H]3CCCN3)c(Oc3cccc(O)c3)n2)c1 [Cpd 38]", "group label": "t"}
{"compound": "COc1ccc(Oc2nc(-c3cncc(C#N)c3)cnc2N[C@H]2CC[C@@H](N)CC2)cc1 [Cpd 35]", "group label": "f"}
